System: human M2 receptor (Homo sapiens, UniProt P08172)
Test Settings: read-out: Receptor activity EC50; M2-GIRK1/4 activation test, acetylcholine at EC20; allosteric potency; in some cases mean values from two or more determinations
Assay Metric: EC50 (nM)
Use nM as the unit, but write only the number.

Query :: Please report the measured EC50 for CC[C@@H](NC(=O)c1cn(-c2c(F)cc(F)cc2F)c2nc(N3CCC(O)C3=O)ccc2c1=O)C(F)(F)F (stereo partly shown) tested on human M2 receptor (Homo sapiens, UniProt P08172).
Result :: 21

* * *

System: human M2 receptor (Homo sapiens)
Test Settings: read-out: Efficiency, boosting of the acetylcholine effect at EC20 acetylcholine concentration; M2-GIRK1/4 reporter cells
Catalogue of Emax values
Provide the reading as a plain figure in %.

Query :: Recall the reported Emax of CC(C)C[C@H](NC(=O)c1cn(-c2c(F)cc(F)cc2F)c2nc(N3C[C@@H](O)[C@H](O)C3)ccc2c1=O)C(F)(F)F [Example 559] on human M2 receptor (Homo sapiens) and write it down.
Result :: 99

Query :: Write Emax of O=C(NC(CC(F)(F)F)C1CC1)c1cn(-c2c(F)cc(F)cc2F)c2nc(N3C[C@@H](O)CC3=O)ccc2c1=O (single isomer, unassigned) [Example 513] ; system used: human M2 receptor (Homo sapiens)
Result :: 91

* * *

System: human M2 receptor (Homo sapiens, UniProt P08172)
Test Settings: Receptor activity EC50, allosteric potency at EC20 acetylcholine; M2-GIRK1/4 reporter cells; in some cases mean of two or more determinations
Assay Metric: pEC50
Keep in mind that pEC50 stands for -log10 of concentration in molar terms.

Compound	System	pEC50
C[C@H](NC(=O)c1cn(-c2c(F)cc(F)cc2Cl)c2nc(N3CC4CC4(O)C3)ccc2c1=O)C(F)(F)F (stereo partly shown)	human M2 receptor (Homo sapiens, UniProt P08172)	8.05
CC(C)(C)[C@H](NC(=O)c1cn(-c2c(F)cc(F)cc2F)c2nc(N3C[C@@H](O)CC3=O)ccc2c1=O)C(F)(F)F	human M2 receptor (Homo sapiens, UniProt P08172)	8.40
O=C(N[C@@H](C1CC1)C(F)(F)F)c1cn(-c2c(F)cc(F)cc2F)c2nc(N3CC(CO)(CO)C3)ccc2c1=O	human M2 receptor (Homo sapiens, UniProt P08172)	7.52
O=C(N[C@@H](C1CC1)C(F)(F)F)c1cn(-c2c(F)cc(F)cc2F)c2nc(N3C[C@@H](O)[C@H](O)C3)ccc2c1=O	human M2 receptor (Homo sapiens, UniProt P08172)	7.82
CC(C)(NC(=O)c1cn(-c2c(F)cc(F)cc2F)c2nc(N3CC[C@@H](O)C3=O)ccc2c1=O)C(F)(F)F	human M2 receptor (Homo sapiens, UniProt P08172)	7.62

Now for another entry.
Query :: Identify measured pEC50 corresponding to CC(NC(=O)c1cn(-c2c(F)cc(F)cc2F)c2nc(N3C[C@@H](O)[C@H](O)C3)ccc2c1=O)(C1CC1)C(F)(F)F (mixture of isomers) [Example 441]
Result :: 7.82

* * *

System: human M2 receptor (Homo sapiens, UniProt P08172)
Sequence (P08172 1-466): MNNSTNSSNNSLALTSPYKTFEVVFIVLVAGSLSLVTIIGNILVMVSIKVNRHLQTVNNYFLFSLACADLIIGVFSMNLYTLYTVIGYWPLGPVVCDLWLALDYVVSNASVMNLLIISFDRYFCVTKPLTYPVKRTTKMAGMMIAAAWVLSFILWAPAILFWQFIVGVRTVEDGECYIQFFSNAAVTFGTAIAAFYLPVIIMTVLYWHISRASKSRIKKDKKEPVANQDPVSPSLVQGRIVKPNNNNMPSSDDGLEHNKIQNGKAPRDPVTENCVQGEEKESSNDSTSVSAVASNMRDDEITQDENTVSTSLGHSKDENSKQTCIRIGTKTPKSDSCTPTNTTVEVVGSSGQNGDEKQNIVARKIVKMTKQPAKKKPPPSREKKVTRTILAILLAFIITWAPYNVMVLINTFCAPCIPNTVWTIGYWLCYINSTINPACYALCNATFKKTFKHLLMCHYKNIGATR
Test Settings: Receptor activity EC50, M2-GIRK1/4 activation test, acetylcholine at EC20; allosteric potency; in some cases mean values from two or more determinations
pEC50: −log10 of the molar value.
Each entry gets Not met if its pEC50 stays under 7, and Met if its pEC50 is 7 or above.

>>> df
                                   compound  assigned_category
0  O=C(NC12CC3CC(CC(C3)C1)C2)c1cn(-c2ccc(F)cc2F)c2nc(N3CCSC3)ccc2c1=O                Met
1  CC12CCC(NC(=O)c3cn(-c4ccc(F)cc4F)c4nc(N5CC[C@@H](O)C5)ccc4c3=O)(CC1)CC2                Met
2  CC(C)C[C@@H](NC(=O)c1cn(-c2ccc(F)cc2F)c2nc(N(C)C)ccc2c1=O)C(F)(F)F                Met

Okay, next one:
Query :: Textbook exercise: given the entry CC[C@@H](NC(=O)c1cn(-c2ccc(F)cc2F)c2nc(N3CCOC(C(F)F)C3)ccc2c1=O)C(F)(F)F (mixture of isomers) [Example 263] , state whether its pEC50 is greater than or equal to 7.
Result :: Not met

* * *

System: UniProt:P08172
Sequence (P08172 1-466): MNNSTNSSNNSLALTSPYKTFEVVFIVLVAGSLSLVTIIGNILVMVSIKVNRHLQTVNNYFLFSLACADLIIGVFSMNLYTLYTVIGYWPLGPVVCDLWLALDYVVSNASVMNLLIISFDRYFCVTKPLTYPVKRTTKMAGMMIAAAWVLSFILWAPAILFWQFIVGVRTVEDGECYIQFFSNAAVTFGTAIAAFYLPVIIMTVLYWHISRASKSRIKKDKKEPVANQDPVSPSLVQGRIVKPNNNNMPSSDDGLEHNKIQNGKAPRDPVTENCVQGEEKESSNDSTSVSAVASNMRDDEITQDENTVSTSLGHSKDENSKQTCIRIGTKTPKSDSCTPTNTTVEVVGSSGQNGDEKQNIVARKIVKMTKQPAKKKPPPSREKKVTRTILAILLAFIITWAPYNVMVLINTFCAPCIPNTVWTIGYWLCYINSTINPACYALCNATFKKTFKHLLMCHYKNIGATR
Test Settings: Receptor activity EC50, allosteric potency at EC20 acetylcholine; M2-GIRK1/4 reporter cells; in some cases mean of two or more determinations
just bin them by EC50: LOW (below 0.02 µM), MEDIUM (0.02 µM to below 0.07 µM), HIGH (0.07 µM or more)

Examples from the recorded data:
Compound	System	Assigned Category
CC[C@@H](NC(=O)c1cn(-c2ccc(F)cc2F)c2nc(N3C(=O)C(C)(C)C(O)C3C)ccc2c1=O)C(F)(F)F (stereo partly shown)	UniProt:P08172	HIGH
CC1(NC(=O)c2cn(-c3c(F)cc(F)cc3F)c3nc(N4C[C@@H](O)[C@H](O)C4)ccc3c2=O)CC(F)(F)C1	UniProt:P08172	HIGH
CCC(COC(F)(F)F)NC(=O)c1cn(-c2c(F)cc(F)cc2F)c2nc(N3C[C@@H](C)NC3=O)ccc2c1=O (mixture of isomers)	UniProt:P08172	LOW
O=C(N[C@@H](C1CC1)C(F)(F)F)c1cn(-c2c(F)cc(F)cc2F)c2nc(N3CC4(CC4)NC3=O)ccc2c1=O	UniProt:P08172	LOW
O=C(NC12CC(C1)C2)c1cn(-c2c(F)cc(F)cc2F)c2nc(N3CC(O)C4(CC4)C3)ccc2c1=O (single isomer, unassigned) [Example 627]	UniProt:P08172	HIGH

Note: attention shifts to another entry.
Query :: Lab log: O=C(N[C@@H](C1CC1)C(F)(F)F)c1cn(-c2c(F)cc(F)cc2Cl)c2nc(N3C[C@@H](O)[C@H](O)C3)ccc2c1=O (single isomer, unassigned) [Example 548] — assign EC50 category
Result :: LOW

* * *

System: human M2 receptor (Homo sapiens)
Test Settings: read-out: Efficiency
Recorded Emax values for a group of compounds are listed next.
Report as a plain number; the unit % is understood.

Consider the worked cases shown below.
Compound	System	Reported
CC[C@H](NC(=O)c1cn(-c2ccc(F)cc2F)c2nc(N3C[C@@H](O)CC3=O)ccc2c1=O)C(F)(F)F [Example 174]	human M2 receptor (Homo sapiens)	98.6
CCC(NC(=O)c1cn(-c2c(F)cc(F)cc2F)c2nc(N3C[C@@H](O)[C@H](O)C3)ccc2c1=O)C(F)(F)C(F)(F)F (single isomer, unassigned) [Example 523]	human M2 receptor (Homo sapiens)	100

Query :: Identify measured Emax corresponding to CC(C)(C)[C@H](NC(=O)c1cn(-c2c(F)cc(F)cc2F)c2nc(N3C[C@@H](O)[C@H](O)C3)ccc2c1=O)C(F)(F)F [Example 369]
Result :: 95
